So I've got a bunch of compounds here, and I need their growth values.
# System: HCC-2998 colon
# Protocol Text: NCI-60 one-dose screen, 48 h (100 = growth as untreated, 0 = no growth, -100 = all killed)
# Details: 10 µM
This is part of a sample that, as a whole, favours compounds with a hit. Of some 83,000 tested, about 20% had one in any assay.
Kindly provide the numeric value in % only, without the unit symbol.

get_value(item= COC1OC(COS(=O)OC)C(O)C(O)C1OS(=O)OC (stereo not given) , readout=growth) returns 97.7

Value of growth reported for the compound CCCCCCCCCCCCCCCCCC[n+]1ccc2c(C)c3c(c(C)c2c1)c1cc(O)ccc1n3CC is 31.5

# growth (compound: S=C1N(c2ccccc2)CN(C2CCCCC2)CN1c1ccccc1 ) is 102

Measured growth of COc1cc(-c2csc(NC(=O)Nc3ccc(Cl)c(C(F)(F)F)c3)n2)cc(OC)c1OC : 21.4

Lab book: growth of CC(C)(C)c1ccc(S(=O)(=O)N[C@H]2CC[C@H]3[C@@H]4CCc5cc(O)ccc5[C@H]4CC[C@]23C)cc1 noted as 74.4

What the record says about Nc1ccc(/C=N/Nc2ccnc3c(O)cccc23)c2cccnc12 : growth is 60.8

Consider CC[C@@H](C(=O)[C@H](C)[C@H](O)[C@@H](C)[C@H]1O[C@H]([C@@H](CC)C(=O)N(CC)CC)CC[C@H]1C)C1O[C@]2(C=C[C@@H](O)[C@]3(CC[C@@](C)([C@H]4CC[C@](O)(CC)[C@H](C)O4)O3)O2)[C@H](C)C[C@@H]1C (stereo not given in full) . Its measured growth is 22.1

Looking up COC(=O)c1cc2oc(/C=C3/SC(=S)N(N)C3=O)cc2n1Cc1ccccc1 , I found its growth recorded as 80.2

Measured growth of OCCn1cccn1 : 97.1

Lab note: COc1ccc([C@H]2[C@H](C(=O)Nc3cccnc3)c3ccccc3C(=O)N2c2ccccc2)cc1 gave growth of 100

// growth value for COc1ccc(-c2n[nH]nc2-c2cc(OC)c3c(c2OC)OCO3)cc1 : 39.6

According to the records, this compound COc1cc2cc(Oc3ccc(NC(=O)c4cc(C(F)(F)F)cc(C(F)(F)F)c4)cc3)c(C)nc2cc1OC displays growth of 73.9

According to the records, this compound N#CC1=C(N)Oc2cc(N)ccc2C1c1cccnc1 (stereo not given) displays growth of 82.4

Notebook: O=C1Cc2cc(CCN3CCN(c4nsc5ccccc45)CC3)c(Cl)cc2N1 , growth read as 120

Measured growth of CCn1c(CSc2nc3ccccc3c(=O)n2CCc2ccccc2)n[nH]c1=S : 99

growth in this record for CN(C)CCC1(c2ccccc2)CCN(C)C1=O (stereo not given) : 108

Lookup result for CN(C)CCOc1cccc(-c2nc3sccn3c2-c2ccnc(S(C)(=O)=O)n2)c1 ; measured growth: 106

// growth lookup, compound = CCC1NC(=O)c2cc(S(N)(=O)=O)c(Cl)cc2N1 (stereo not given) , result: 105

// recorded growth for COc1cc(N)c2ncccc2c1SC : 102

Memo: CCN(CC)CCCOc1cccc2c1C(=O)c1cccc(OCCCN(CC)CC)c1C2=O , reported growth: 57.4

----------
# Test system: CAKI-1 renal
# Protocol Text: NCI-60 one-dose screen, 48 h
# Details: 10 µM
Compounds without any hit were thinned out: in the full panel of roughly 83,000, 20% have a hit. Active and inactive are the calls of the source. How the source made its calls: active means growth percent below 10; inactive means the rest.
Give your call using only these classes: Y = active, N = inactive

Req: State the result this test recorded for O=S(=O)(Oc1ccc(-c2ccc3sccc3c2)cc1)c1ccccc1 .
Resp: N

Req: Answer briefly: the call reported for Cc1ccc(-n2c(C)nn3c(=O)c4c5c(sc4nc23)CN(C)CC5)cc1 in this assay.
Resp: N

Req: Hi, do you know how C=CCn1c(SCC(=O)Nc2ccc(C(=O)/C=C/c3ccc(Cl)cc3)cc2)nnc1-c1cc(-c2ccccc2)nc2ccccc12 came out in this test?
Resp: N

Req: What classification did COc1ccc(/C=C2\CCCC3=C2NC(N)=NC3c2ccc(OC)c(OC)c2)cc1OC (stereo not given) end up with in this test?
Resp: N

Req: Hey, what did the test say about Cc1ccccc1N1C(=O)c2cc(S(N)(=O)=O)c(Cl)cc2NC1C (stereo not given) ?
Resp: N

Req: Which outcome was entered for the compound c1ccc2c(c1)Cc1ccccc1N2CCN1CCCCC1 in this test?
Resp: N

Req: What outcome does the record of this test show for Cc1ccc(C(=O)/C=C/c2ccccc2)s1 ?
Resp: N

Req: Please state the recorded outcome for this compound: O=C1OC(C(Cl)(Cl)Cl)OC1C(Cl)(Cl)Cl (stereo not given)
Resp: N

Req: What outcome does the record of this test show for CC(=O)Nc1ccc(S(=O)(=O)c2ccnc3cc(Cl)ccc23)cc1 ?
Resp: N

Req: State the result this test recorded for C[C@@H](O)[C@H]1C(=O)N2C(C(=O)O)=C(SCCN=CN)C[C@H]12 .
Resp: Y

Req: Which result was noted for this compound in the test: O=C(COc1cccc(/C=C2\CSc3ccccc3C2=O)c1)c1ccc(Cl)cc1
Resp: Y

Req: Dear all, I need the recorded test outcome for CCCCN(CCCC)C(=O)[C@H](CC)[C@@H]1CC[C@@H](C)[C@@H]([C@H](C)[C@@H](O)[C@@H](C)C(=O)[C@H](CC)C2O[C@]3(C=C[C@@H](O)[C@]4(CC[C@@](C)([C@H]5CC[C@](O)(CC)[C@H](C)O5)O4)O3)[C@H](C)C[C@@H]2C)O1 (stereo not given in full) , thank you.
Resp: Y

Req: Hi team, can someone confirm the assay call for C#CCOc1c(OC)cc(C(=O)/C(C)=C/c2cccc(N=[N+]=[N-])c2)cc1OC ?
Resp: N

Req: Test call, this compound: COc1ccccc1/C=N\N/C(N)=N\N=C\c1ccccc1OC
Resp: Y

Req: Given O=C1Cc2cc(CCN3CCN(c4nsc5ccccc45)CC3)c(Cl)cc2N1 , state the outcome it received in this test.
Resp: N

Req: Which outcome was entered for the compound CC(=O)C1CCC2C3CC=C4CC(SC(=N)N)CCC4(C)C3CCC12C (stereo not given) in this test?
Resp: N

Req: For COc1cc(/C=C/c2cc(/C=C/c3ccc(O)c(OC)c3)[nH]c(=O)n2)ccc1O , what call appears in the results of this test?
Resp: N

Req: In this assay, the call recorded for CCC(CC)n1c(C)cc(=O)n1C(CC)CC was what?
Resp: N

Req: For this compound, state the assay outcome: CCOC(=O)CSc1nc(-c2cc(OC)ccc2OC)cc(-c2ccc(OC)cc2)c1C#N
Resp: N

Req: Give the logged outcome of this assay for the following compound: O=c1c(Br)ccc(Br)cc1Br
Resp: Y
